- measurementTarget: N-arachidonyl glycine receptor (Homo sapiens) (UniProt Q14330)
- Sequence (whole entry): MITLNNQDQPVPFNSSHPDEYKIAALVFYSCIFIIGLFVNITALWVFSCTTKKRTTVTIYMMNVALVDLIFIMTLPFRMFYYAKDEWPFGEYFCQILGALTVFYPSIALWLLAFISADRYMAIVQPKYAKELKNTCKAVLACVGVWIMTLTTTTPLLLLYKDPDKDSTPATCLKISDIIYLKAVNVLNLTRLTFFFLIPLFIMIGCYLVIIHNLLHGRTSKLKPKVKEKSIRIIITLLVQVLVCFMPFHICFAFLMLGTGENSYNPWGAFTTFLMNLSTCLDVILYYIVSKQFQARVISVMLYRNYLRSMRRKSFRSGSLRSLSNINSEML
- assayDetails: Antagonist activity at recombinant human GPR18 expressed in CHO cells assessed as inhibition of delta9-THC-induced beta-arrestin recruitment preincubated for 60 mins followed by delta9-THC addition for 90 mins measured for 1 sec by luminescence assay
- Type: functional, cell-based
readoutName: Imax
Numeric answer plus unit only.

substanceSmiles: O=C1/C(=C/c2cccc(OCCCOc3ccc(Cl)cc3)c2)N=C2SCCCN12
valueReported: 113%
--
substanceSmiles: CC(C)c1ccc(OCCCCCCOc2cccc(/C=C3\N=C4SCCCN4C3=O)c2)cc1
valueReported: 24%
--
substanceSmiles: O=C1NC(=O)/C(=C/c2cccc(OCc3ccc(Cl)cc3)c2)S1
valueReported: -10%

Notebook entry, N-arachidonyl glycine receptor (Homo sapiens) (UniProt Q14330) assay: Imax of O=C1NC(=S)S/C1=C\c1cccc(OCc2ccc(Cl)cc2)c1 = ?
22%

Notebook entry, N-arachidonyl glycine receptor (Homo sapiens) (UniProt Q14330) assay: Imax of CCc1ccc(OCCCCCCOc2cccc(/C=C3\N=C4SCCCN4C3=O)c2)cc1 = ?
99%

---

Listed below: IC50 values for each entry.
- measurementTarget: N-arachidonyl glycine receptor (Homo sapiens)
- Sequence (Q14330 whole entry): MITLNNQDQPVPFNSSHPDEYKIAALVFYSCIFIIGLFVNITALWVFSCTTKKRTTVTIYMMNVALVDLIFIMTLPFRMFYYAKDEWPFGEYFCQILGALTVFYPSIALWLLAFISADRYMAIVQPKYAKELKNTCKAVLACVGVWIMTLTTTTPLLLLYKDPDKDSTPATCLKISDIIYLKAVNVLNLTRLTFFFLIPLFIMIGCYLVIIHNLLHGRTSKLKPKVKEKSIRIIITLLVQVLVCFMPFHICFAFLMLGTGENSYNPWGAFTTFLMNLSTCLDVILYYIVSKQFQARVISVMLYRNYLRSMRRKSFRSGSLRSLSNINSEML
- assayDetails: Antagonist activity at recombinant human GPR18 expressed in CHO cells assessed as inhibition of delta9-THC-induced beta-arrestin recruitment preincubated for 60 mins followed by delta9-THC addition for 90 mins measured for 1 sec by luminescence assay

Some solved cases for reference:
substanceSmiles: O=C1NC(=S)S/C1=C\c1cccc(OCc2ccc(Cl)cc2)c1
IC50: > 10 µM
--
substanceSmiles: CSC1=N/C(=C\c2cccc(OCc3ccc(Cl)cc3)c2)C(=O)N1C
IC50: > 10 µM
--
substanceSmiles: O=C1/C(=C/c2cccc(OCCCOc3ccc(Cl)cc3)c2)N=C2SCCCN12
IC50: 3.25 µM
--
substanceSmiles: O=C1NC(SCc2ccc(Cl)cc2)=N/C1=C\c1cccc(OCc2ccc(Cl)cc2)c1
IC50: > 10 µM

Attention now turns to another entry.
What value of IC50 has been recorded for this entry: Cc1ccc(CSC2=N/C(=C\c3cccc(OCc4ccc(Cl)cc4)c3)C(=O)N2)cc1
> 10 µM

---

Listed below: Imax values for each entry.
- measurementTarget: N-arachidonyl glycine receptor (Homo sapiens) (UniProt Q14330)
- Sequence (whole entry): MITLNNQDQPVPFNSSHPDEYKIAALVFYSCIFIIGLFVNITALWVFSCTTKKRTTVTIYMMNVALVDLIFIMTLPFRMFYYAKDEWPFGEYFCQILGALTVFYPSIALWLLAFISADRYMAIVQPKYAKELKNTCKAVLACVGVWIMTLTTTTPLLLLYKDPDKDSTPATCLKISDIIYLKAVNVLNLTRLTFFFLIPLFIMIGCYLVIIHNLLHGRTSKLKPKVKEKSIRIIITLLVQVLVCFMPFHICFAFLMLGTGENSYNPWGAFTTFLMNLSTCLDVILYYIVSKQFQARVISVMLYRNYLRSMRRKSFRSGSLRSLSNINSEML
- assayDetails: Antagonist activity at recombinant human GPR18 expressed in CHO cells assessed as inhibition of delta9-THC-induced beta-arrestin recruitment preincubated for 60 mins followed by delta9-THC addition for 90 mins measured for 1 sec by luminescence assay
- Type: functional, cell-based
Report as a plain number; the unit % is understood.

Some solved cases for reference:
substanceSmiles: O=C1/C(=C/c2cccc(OCc3ccc(F)cc3)c2)N=C2SCCCN12
valueReported: 3
--
substanceSmiles: CSC1=NC(=O)/C(=C/c2cccc(OCc3ccc(Cl)cc3)c2)N1
valueReported: 71
--
substanceSmiles: O=C1/C(=C/c2cccc(OCCCCCCCOc3ccc(Cl)cc3)c2)N=C2SCCCN12
valueReported: 97
--
substanceSmiles: O=C1NC(SCc2ccc(F)cc2)=N/C1=C\c1cccc(OCc2ccc(Cl)cc2)c1
valueReported: 27
--
substanceSmiles: O=C1/C(=C/c2cccc(OCCc3ccccc3)c2)N=C2SCCCN12
valueReported: 16

What value of Imax has been recorded for this entry: Cc1ccc(COc2cccc(/C=C3\N=C4SCCCN4C3=O)c2)cc1
61

What value of Imax has been recorded for this entry: O=C1/C(=C/c2cccc(OCCCCCCOc3ccccc3Cl)c2)N=C2SCCCN12
41

What value of Imax has been recorded for this entry: O=C1/C(=C/c2cccc(OCCCCCCCCOc3ccc(Cl)cc3)c2)N=C2SCCCN12
124

What value of Imax has been recorded for this entry: O=C1/C(=C/c2cccc(OCCCCCCOc3cccc(Cl)c3)c2)N=C2SCCCN12
55

What value of Imax has been recorded for this entry: O=C1NC(=S)N/C1=C\c1cccc(OCc2ccc(Cl)cc2)c1
165

What value of Imax has been recorded for this entry: O=C1/C(=C/c2cccc(OCCCCCCOc3ccc(Cl)cc3)c2)N=C2SCCCN12
122

---

Listed below: IC50 values for each entry.
- measurementTarget: UniProt:Q9Y2T6
- assayDetails: Antagonist activity at recombinant human GPR55 expressed in CHO cells assessed as inhibition of lysophosphatidylinositol-induced beta-arrestin recruitment preincubated for 60 mins followed by lysophosphatidylinositol addition for 90 mins measured for 1 sec by luminescence assay

Some solved cases for reference:
substanceSmiles: O=C1NC(=O)/C(=C/c2cccc(OCc3ccc(Cl)cc3)c2)S1
IC50: > 10 µM
//
substanceSmiles: O=C1/C(=C/c2cccc(OCCCc3ccccc3)c2)N=C2SCCCN12
IC50: 6.04 µM
//
substanceSmiles: O=C1/C(=C/c2cccc(OCCCCCCOc3ccc(Cl)cc3)c2)N=C2SCCCN12
IC50: > 10 µM
//
substanceSmiles: O=C1N=C2SCCN2/C1=C\c1cccc(OCc2ccc(Cl)cc2)c1
IC50: > 10 µM
//
substanceSmiles: O=C1NC(SCc2ccc(F)cc2)=N/C1=C\c1cccc(OCc2ccc(Cl)cc2)c1
IC50: > 10 µM

Notebook entry, UniProt:Q9Y2T6 assay: IC50 of O=C1/C(=C/c2cccc(OCc3ccc(F)cc3)c2)N=C2SCCCN12 = ?
4.22 µM

Notebook entry, UniProt:Q9Y2T6 assay: IC50 of O=C1/C(=C/c2cccc(OCCCCCCOc3cccc(Cl)c3)c2)N=C2SCCCN12 = ?
> 10 µM

Notebook entry, UniProt:Q9Y2T6 assay: IC50 of O=C1/C(=C/c2cccc(OCc3ccc(Cl)cc3)c2)N=C2SCCN12 = ?
> 10 µM

Notebook entry, UniProt:Q9Y2T6 assay: IC50 of O=C1/C(=C/c2cccc(OCCCOc3ccc(Cl)cc3)c2)N=C2SCCCN12 = ?
> 10 µM

---

- measurementTarget: G-protein coupled receptor 55 (Homo sapiens, UniProt Q9Y2T6)
- Sequence (Q9Y2T6 whole entry): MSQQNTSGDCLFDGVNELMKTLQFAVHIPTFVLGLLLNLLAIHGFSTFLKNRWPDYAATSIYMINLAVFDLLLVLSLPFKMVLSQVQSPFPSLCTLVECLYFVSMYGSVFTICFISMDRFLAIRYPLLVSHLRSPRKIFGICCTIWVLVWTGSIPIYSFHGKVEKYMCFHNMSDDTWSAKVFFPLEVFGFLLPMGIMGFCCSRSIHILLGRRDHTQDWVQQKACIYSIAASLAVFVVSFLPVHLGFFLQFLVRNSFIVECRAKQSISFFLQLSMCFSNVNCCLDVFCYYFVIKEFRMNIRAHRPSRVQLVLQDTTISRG
- assayDetails: Agonist activity at recombinant human GPR55 expressed in CHO cells assessed as increase in beta-arrestin recruitment incubated for 60 mins measured for 1 sec by luminescence assay
- Format: functional, cell-based
readoutName: %max (%)
Report as a plain number; the unit % is understood.

Some solved cases for reference:
substanceSmiles: O=C1/C(=C/c2cccc(OCc3ccc(F)cc3)c2)N=C2SCCCN12
u: %
%max: -30
//
substanceSmiles: O=C1/C(=C/c2cccc(OCc3ccc(Br)cc3)c2)N=C2SCCCN12
u: %
%max: -19
//
substanceSmiles: Cc1ccc(OCCCCCCOc2cccc(/C=C3\N=C4SCCCN4C3=O)c2)cc1
u: %
%max: 35
//
substanceSmiles: O=C1/C(=C/c2cccc(OCCCCCCOc3ccc(Cl)cc3)c2)N=C2SCCCN12
u: %
%max: -15
//
substanceSmiles: Cc1ccc(CSC2=N/C(=C\c3cccc(OCc4ccc(Cl)cc4)c3)C(=O)N2C)cc1
u: %
%max: 20
//
substanceSmiles: O=C1/C(=C/c2cccc(OCCCOc3ccc(Cl)cc3)c2)N=C2SCCCN12
u: %
%max: -36
//
substanceSmiles: O=C1/C(=C/c2cccc(OCCCCCCOc3ccccc3Cl)c2)N=C2SCCCN12
u: %
%max: 0
//
substanceSmiles: Cc1cccc(C)c1OCCCCCCOc1cccc(/C=C2\N=C3SCCCN3C2=O)c1
u: %
%max: 33

What value of %max has been recorded for this entry: O=C1/C(=C/c2cccc(OCCCCCOc3ccc(Cl)cc3)c2)N=C2SCCCN12
-21

What value of %max has been recorded for this entry: O=C1NC(=S)N/C1=C\c1cccc(OCc2ccc(Cl)cc2)c1
5
